# key: entry, value: residual activity
- TARGET OR TEST SYSTEM: ULK3 (human)
- ASSAY EXPLANATION: radiometric filter-binding kinase assay, Kinase HotSpot
- REPORTED CONDITIONS: compound 0.5 µM; ATP 10 µM

CHEMICAL STRING: CN(C)S(=O)(=O)c1ccc2c(c1)/C(=C/c1cc3c([nH]1)CCCC3)C(=O)N2
ASSAY READOUT: residual activity
MEASURED: 26.3%

CHEMICAL STRING: CS(=O)(=O)CCNCc1ccc(-c2ccc3ncnc(Nc4ccc(OCc5cccc(F)c5)c(Cl)c4)c3c2)o1
ASSAY READOUT: residual activity
MEASURED: 106%

CHEMICAL STRING: O=C1Nc2ccc(Br)cc2/C1=C\c1cc2c([nH]1)CCCC2
ASSAY READOUT: residual activity
MEASURED: 55.5%

CHEMICAL STRING: COc1cc(Nc2c(C#N)cnc3cc(OCCCN4CCN(C)CC4)c(OC)cc23)c(Cl)cc1Cl
ASSAY READOUT: residual activity
MEASURED: 100%

CHEMICAL STRING: O=C1c2ccccc2-c2nc3nnnn3nc21
ASSAY READOUT: residual activity
MEASURED: 103%

## Input Look at this compound and give its reported residual activity. O=C1C(Cl)=C(N2C(=O)CCC2=O)C(=O)c2ccccc21
## Output 102%

## Input Consider next the compound Cc1cccc(-c2nc(C(C)(C)C)[nH]c2-c2ccc3c(c2)OCO3)n1 in the same way.
## Output 80.4%

## Input Consider next the compound COc1cc2ncnc(Nc3ccc(Oc4ccccc4)cc3)c2cc1OC in the same way.
## Output 94.7%

## Input Consider next the compound N#Cc1c[nH]c2c[nH]/c(=N\Cc3cccnc3)cc2/c1=N\c1ccc(F)c(Cl)c1 in the same way.
## Output 72%

## Input Consider next the compound CO[C@@H]1[C@H](N(C)C(=O)c2ccccc2)C[C@H]2O[C@]1(C)n1c3ccccc3c3c4c(c5c6ccccc6n2c5c31)C(=O)NC4 in the same way.
## Output 37%

## Input Consider next the compound Cc1nc(-c2ccccc2)c(-c2ccncc2)o1 in the same way.
## Output 94.3%

## Input Consider next the compound N#C/C(=C\c1ccc(O)c(O)c1)C(=O)NCc1ccccc1 in the same way.
## Output 71.2%

## Input Consider next the compound COc1ccc2c(c1)/C(=C/c1cnc[nH]1)C(O)=N2 in the same way.
## Output 67.9%

The reported numbers originate from the kinase profiling compilation of Christmann-Franck et al. (2016).
